Reported pIC50 for target or system Acetylcholinesterase (Homo sapiens, UniProt P22303), by entry.
Answers are plain numbers, as −log10 of the molar value.

COMPOUND SMILES: CCOC(=O)C1=C(C)Oc2nc3c(c(N)c2[C@H]1c1ccncc1)CCC3
pIC50: 5.18
//
COMPOUND SMILES: CCOC(=O)c1c(C)nc2nc3c(c(N)c2c1-c1cccc([N+](=O)[O-])c1)CCCCC3
pIC50: 4.85
//
COMPOUND SMILES: CCOC(=O)c1c(C)nc2nc3c(c(N)c2c1-c1cccc([N+](=O)[O-])c1)CCCC3
pIC50: 6.03
//
COMPOUND SMILES: CCOC(=O)C1=C(C)Nc2nc3c(c(N)c2[C@H]1c1ccc([N+](=O)[O-])cc1)CCCC3
pIC50: 6.22
//
COMPOUND SMILES: CC1(C)CC(=O)C2=C(C1)Nc1nc3c(c(N)c1[C@H]2c1ccncc1)CCCC3
pIC50: 6.22
//
COMPOUND SMILES: CCOC(=O)c1c(C)nc2nc3c(c(N)c2c1-c1ccc(F)cc1)CCCC3
pIC50: 6.15
//
COMPOUND SMILES: CCOC(=O)c1c(C)nc2nc3c(c(N)c2c1-c1ccc(Cl)cc1)CCCC3
pIC50: 5.89
//
COMPOUND SMILES: CCOC(=O)c1c(C)nc2nc3c(c(N)c2c1-c1ccc(OC)cc1)CCCC3
pIC50: 5.05

Proceeding to the next compound to report its pIC50.
Looking for the measured pIC50 of `COc1ccccc1[C@H]1C2=C(CC(C)(C)CC2=O)Oc2nc3c(c(N)c21)CCCC3` , can you help? 5.15

====

As a worked illustration, we turn to pIC50 data collected for Acetylcholinesterase (Homo sapiens).
Numbers only, as −log10 of the molar value.

// solved cases for pIC50 follow
COMPOUND SMILES: COc1ccc([C@H]2C3=C(CC(C)(C)CC3=O)Nc3nc4c(c(N)c32)CCCC4)cc1
pIC50: 6.66
//
COMPOUND SMILES: CCOC(=O)C1=C(C)Oc2nc3c(c(N)c2[C@H]1c1cccs1)CCC3
pIC50: 4.56
//
COMPOUND SMILES: CCOC(=O)c1c(C)nc2nc3c(c(N)c2c1-c1ccc(OC)cc1)CCCCCC3
pIC50: 4.77

Provide the reported pIC50 of each entry below, same order.
1. CC1(C)CC(=O)C2=C(C1)Nc1nc3c(c(N)c1[C@H]2c1ccc(F)cc1)CCCC3
2. CC1(C)CC(=O)C2=C(C1)Oc1nc3c(c(N)c1[C@H]2c1cccc([N+](=O)[O-])c1)CCCC3
3. CCOC(=O)C1=C(C)Oc2nc3c(c(N)c2[C@H]1c1ccccc1OC)CCCCC3
4. COc1cccc([C@H]2C3=C(CC(C)(C)CC3=O)Oc3nc4c(c(N)c32)CCCC4)c1

[6.27, 4.92, 4.68, 4.67]

Required: pIC50, one value per molecule below.
1. COc1ccc([C@H]2C3=C(CC(C)(C)CC3=O)Oc3nc4c(c(N)c32)CCCC4)cc1
2. CCOC(=O)C1=C(C)Oc2nc3c(c(N)c2[C@H]1c1ccccc1)CCCC3

1. 4.39
2. 5.81

====

Below are molecules with their pIC50 as measured on Acetylcholinesterase (Homo sapiens, UniProt P22303).
Sequence (P22303 whole entry): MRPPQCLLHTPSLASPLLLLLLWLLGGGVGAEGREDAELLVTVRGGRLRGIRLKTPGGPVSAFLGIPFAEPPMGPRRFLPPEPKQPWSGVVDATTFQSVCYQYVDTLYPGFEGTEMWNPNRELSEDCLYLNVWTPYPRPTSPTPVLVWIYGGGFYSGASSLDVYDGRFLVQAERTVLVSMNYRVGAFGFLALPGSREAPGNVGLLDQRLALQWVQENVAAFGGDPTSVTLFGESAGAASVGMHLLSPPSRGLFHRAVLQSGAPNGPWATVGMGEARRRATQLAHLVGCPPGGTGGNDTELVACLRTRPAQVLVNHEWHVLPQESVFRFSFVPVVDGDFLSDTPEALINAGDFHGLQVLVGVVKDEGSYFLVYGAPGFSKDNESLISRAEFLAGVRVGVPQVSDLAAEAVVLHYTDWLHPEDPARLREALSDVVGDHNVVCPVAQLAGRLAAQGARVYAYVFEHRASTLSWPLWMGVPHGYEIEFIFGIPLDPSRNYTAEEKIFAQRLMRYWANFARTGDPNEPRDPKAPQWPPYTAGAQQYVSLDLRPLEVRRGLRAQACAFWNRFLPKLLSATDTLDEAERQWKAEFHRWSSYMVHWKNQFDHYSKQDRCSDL
Numbers only, as −log10 of the molar value.

Return reported pIC50 values for all items listed beneath this line.
1. CCOC(=O)c1c(C)nc2nc3c(c(N)c2c1-c1cccc(OC)c1)CCCC3
2. Cc1nc2nc3c(c(N)c2c(-c2ccccc2)c1C(=O)OC(C)C)CCCC3
3. CCOC(=O)C1=C(C)Oc2nc3c(c(N)c2[C@H]1c1cccnc1Cl)CCCC3

1: 5.92; 2: 5.92; 3: 5.67

====

biological target: Acetylcholinesterase (Homo sapiens)
Criterion: IC50 strictly under 8 µM. Met: class 1. Not met: class 0.

Threshold test, IC50 < 8 µM: `CCOC(=O)C1=C(C)Oc2nc3c(c(N)c2[C@H]1c1cccs1)CCCC3` class 0

Query `CCOC(=O)C1=C(C)Oc2nc3c(c(N)c2[C@H]1c1cccnc1)CCCC3` next class 1

Next entry: `CCOC(=O)C1=C(C)Oc2nc3c(c(N)c2[C@H]1c1ccc(C#N)cc1)CCCC3` class 1

Now try `CCOC(=O)c1c(C)nc2nc3c(c(N)c2c1-c1ccccc1)CCCCC3` . class 0

====

biological target: Acetylcholinesterase (Homo sapiens, UniProt P22303)
MEASUREMENT LABEL: pIC50
One number for each entry, as −log10 of the molar value.

Consider the reported pIC50 for these compounds:
COMPOUND SMILES: CC1(C)CC(=O)C2=C(C1)Oc1nc3c(c(N)c1[C@H]2c1ccc(F)cc1)CCCC3
MEASUREMENT LABEL: pIC50
REPORTED MEASUREMENT: 4.16
--
COMPOUND SMILES: CCOC(=O)c1c(C)nc2nc3c(c(N)c2c1-c1ccccc1)CCCCCC3
MEASUREMENT LABEL: pIC50
REPORTED MEASUREMENT: 4.77
--
COMPOUND SMILES: CCOC(=O)c1c(C)nc2nc3c(c(N)c2c1-c1ccncc1)CCCCC3
MEASUREMENT LABEL: pIC50
REPORTED MEASUREMENT: 5.29

Could I get pIC50 for every one of these entries?
1. CCOC(=O)C1=C(C)Nc2nc3c(c(N)c2[C@H]1c1ccccc1)CCCC3
2. CC1(C)CC(=O)C2=C(C1)Oc1nc3c(c(N)c1[C@H]2c1ccccc1)CCCC3

[7.10, 4.31]

I would be grateful if you could provide pIC50 for each of the following entries.
1. CC1(C)CC(=O)C2=C(C1)Nc1nc3c(c(N)c1[C@H]2c1ccccc1)CCCC3
2. CC1(C)CC(=O)C2=C(C1)Oc1nc3c(c(N)c1[C@H]2c1ccccc1C(F)(F)F)CCCC3
3. CCOC(=O)C1=C(C)Oc2nc3c(c(N)c2[C@H]1c1cccnc1Br)CCCC3
4. CCOC(=O)c1c(C)nc2nc3c(c(N)c2c1-c1ccccc1)CCCC3
5. CCOC(=O)C1=C(C)Oc2nc3c(c(N)c2[C@H]1c1ccccc1)CCC3
6. CC1(C)CC(=O)C2=C(C1)Oc1nc3c(c(N)c1[C@H]2c1ccc([N+](=O)[O-])cc1)CCCC3
7. CCOC(=O)C1=C(C)Nc2nc3c(c(N)c2[C@H]1c1ccc(C)cc1)CCCC3

1. 6.49
2. 4.75
3. 5.73
4. 6.09
5. 5.41
6. 4.03
7. 7.04

Respectfully, I request pIC50 for each entry included below.
1. CCOC(=O)c1c(C)nc2nc3c(c(N)c2c1-c1ccncc1)CCCC3
2. CCOC(=O)C1=C(C)Oc2nc3c(c(N)c2[C@H]1c1cccc(OC)c1)CCCC3
3. Cc1ccc([C@H]2C3=C(CC(C)(C)CC3=O)Oc3nc4c(c(N)c32)CCCC4)cc1
4. CCOC(=O)C1=C(C)Oc2nc3c(c(N)c2[C@H]1c1ccc(Cl)cc1)CCCC3

1: 5.85; 2: 5.11; 3: 4.29; 4: 5.71

====

target: Acetylcholinesterase (Homo sapiens, UniProt P22303)
Hi there, I'd appreciate the recorded IC50 for every entry that follows.
Give bare numbers, in µM.

Some solved entries appear below for comparison.
COMPOUND SMILES: CCOC(=O)C1=C(C)Oc2nc3c(c(N)c2[C@H]1c1cccc([N+](=O)[O-])c1)CCCC3
UOM: µM
IC50: 1.91
//
COMPOUND SMILES: CCOC(=O)c1c(C)nc2nc3c(c(N)c2c1-c1ccc(F)cc1)CCCCC3
UOM: µM
IC50: 5.37
//
COMPOUND SMILES: CCOC(=O)c1c(C)nc2nc3c(c(N)c2c1-c1ccc(OC)cc1)CCCCC3
UOM: µM
IC50: 1.35
//
COMPOUND SMILES: CCOC(=O)C1=C(C)Oc2nc3c(c(N)c2[C@H]1c1cccs1)CCCCC3
UOM: µM
IC50: 14.5
//
COMPOUND SMILES: CCOC(=O)C1=C(C)Oc2nc3c(c(N)c2[C@H]1c1cccnc1)CCCCC3
UOM: µM
IC50: 32.4
//
COMPOUND SMILES: CCOC(=O)C1=C(C)Oc2nc3c(c(N)c2[C@H]1c1ccncc1)CCCC3
UOM: µM
IC50: 3.02

Batch of 5 compounds: report IC50 for each.
1. CCOC(=O)C1=C(C)Oc2nc3c(c(N)c2[C@H]1c1ccc(OC)c(OC)c1)CCC3
2. CCOC(=O)c1c(C)nc2nc3c(c(N)c2c1-c1ccc(OC)c(OC)c1)CCCCC3
3. CCOC(=O)C1=C(C)Oc2nc3c(c(N)c2[C@H]1c1ccncc1)CCCCC3
4. CCOC(=O)C1=C(C)Oc2nc3c(c(N)c2[C@H]1c1ccc(OC)c(OC)c1)CCCC3
5. CCOC(=O)C1=C(C)Oc2nc3c(c(N)c2[C@H]1c1cccnc1OC)CCCC3

1: 26.9; 2: 6.46; 3: 8.51; 4: 4.57; 5: 3.89

For every record below, what is its IC50?
1. CCOC(=O)C1=C(C)Oc2nc3c(c(N)c2[C@H]1c1ccco1)CCCC3
2. CCOC(=O)C1=C(C)Oc2nc3c(c(N)c2[C@H]1c1ccc(OC)c(OC)c1)CCCCC3
3. CCOC(=O)c1c(C)nc2nc3c(c(N)c2c1-c1ccc(OC)cc1)CCC3
4. CCOC(=O)c1c(C)nc2nc3c(c(N)c2c1-c1ccccc1OC)CCCCC3
5. CCOC(=O)c1c(C)nc2nc3c(c(N)c2c1-c1ccc(C)cc1)CCCCC3
6. CCOC(=O)c1c(C)nc2nc3c(c(N)c2c1-c1ccccc1)CCC3

1.7
33.1
13.8
21.9
12.9
12

Below are 3 compounds. Give each one its IC50.
1. CCOC(=O)C1=C(C)Oc2nc3c(c(N)c2[C@H]1c1ccc(OC)cc1)CCCC3
2. CCOC(=O)c1c(C)nc2nc3c(c(N)c2c1-c1ccc(OC)c(OC)c1)CCCC3
3. Cc1ccc([C@H]2C3=C(CC(C)(C)CC3=O)Nc3nc4c(c(N)c32)CCCC4)cc1

1. 0.871
2. 1.29
3. 0.229

Reference source for all entries: ChEMBL document CHEMBL3045165
